Numbers sourced from ChEMBL document CHEMBL4261529.

target: UniProt P03372; test: Agonist activity at ERalpha (unknown origin) expressed in HEK293T cells assessed as transcriptional activity after 24 hrs by dual luciferase reporter gene assay
Sequence (P03372 whole entry): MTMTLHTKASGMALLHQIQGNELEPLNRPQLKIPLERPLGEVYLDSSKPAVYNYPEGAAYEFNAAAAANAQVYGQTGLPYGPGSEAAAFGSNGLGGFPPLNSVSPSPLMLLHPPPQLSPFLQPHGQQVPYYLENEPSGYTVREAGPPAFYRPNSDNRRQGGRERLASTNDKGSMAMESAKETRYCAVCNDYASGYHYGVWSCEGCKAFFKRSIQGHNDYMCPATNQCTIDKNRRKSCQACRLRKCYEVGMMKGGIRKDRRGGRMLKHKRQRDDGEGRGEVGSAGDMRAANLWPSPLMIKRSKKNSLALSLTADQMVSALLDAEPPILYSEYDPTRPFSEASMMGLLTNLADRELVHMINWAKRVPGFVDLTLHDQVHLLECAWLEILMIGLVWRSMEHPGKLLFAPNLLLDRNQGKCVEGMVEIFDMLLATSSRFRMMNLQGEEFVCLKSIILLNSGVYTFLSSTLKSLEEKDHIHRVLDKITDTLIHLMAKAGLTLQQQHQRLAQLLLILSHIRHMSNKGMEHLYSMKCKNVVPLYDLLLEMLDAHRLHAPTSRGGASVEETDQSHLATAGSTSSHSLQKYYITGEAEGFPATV
pEC50: −log10 of the molar value.
RESULT_TYPE: pEC50

>>> observed_value("Cc1cc(-c2c[se]cc2-c2ccc(OCCN3CCCC3)c(C)c2)ccc1O")
6.94
>>> observed_value("Cc1cc(O)ccc1-c1ccc(-c2ccc(OCCN3CCCCC3)cc2C)[se]1")
5.63
>>> observed_value("Oc1ccc(-c2ccc(-c3ccc(OCCN4CCCC4)cc3)[se]2)cc1")
6.66
>>> observed_value("Oc1ccc(-c2ccc(-c3ccc(OCCN4CCCCC4)cc3F)[se]2)c(F)c1")
6.69
>>> observed_value("Oc1ccc(-c2cc(-c3ccc(OCCN4CCCCC4)cc3)c(-c3ccc(O)cc3)[se]2)cc1")
5.74
